Biological target: Ubiquitin carboxyl-terminal hydrolase isozyme L5 (Homo sapiens)
Experiment: inhibitors of human UCH37 deubiquitinase, primary screen, biochemical, Ub-AMC cleavage, fluorescence (AID 588478);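 further: 0% = compound-free wells with enzyme and 100% = wells lacking proteasome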
Settings: purified proteasome/UCH37, Ub-AMC cleavage fluorescence; active compounds read high; concentration not given here
Among all 330,000 compounds or so, about 1,100 (0.33%) were called active. Shown is part of a subset that was picked to be rich in actives.
Please go through the items and note down their inhibition.
Numbers only, in %.

Please review the entries below; each comes with its answer.
compound: O=C(CN1C(=O)c2ccccc2S1(=O)=O)NC1CCCCC1
target: Ubiquitin carboxyl-terminal hydrolase isozyme L5 (Homo sapiens)
quantityMeasured: inhibition
quantitativeResult: 0.614
--
compound: CCS(=O)(=O)N1CCCC(C(=O)NCCCN(C)Cc2ccccc2)C1 (stereo unspecified)
target: Ubiquitin carboxyl-terminal hydrolase isozyme L5 (Homo sapiens)
quantityMeasured: inhibition
quantitativeResult: 29

For every item below, please supply its inhibition.
1. O=C(CC1OC(=O)c2ccccc21)NC1CCCCC1 (stereo unspecified)
2. CCCS(=O)(=O)N1CCC(C(=O)NCCCN(C)Cc2ccccc2)CC1
3. COC(=O)c1ccccc1-c1ccc(C=NNC(N)=O)o1
4. O=C(NN=Cc1cc2cc3c(cc2nc1Cl)OCO3)c1ccncc1
5. CC(OC(=O)c1ccc(Cl)cc1O)C(=O)NCCC1=CCCCC1 (stereo unspecified)
6. O=C1C(Cl)=C(N2CCOCC2)C(=O)N1c1ccccc1

Result ::
1. 26
2. -3.1
3. -17.5
4. -62.6
5. -2.32
6. 3.48

For every item below, please supply its inhibition.
1. COc1ccc(C(C)=NNC(=O)c2ccc(N(C)C)cc2)cc1
2. CC(C)(C)OC(=O)CNC(=O)c1[nH]cnc1C(=O)N[C@@H](Cc1ccccc1)C(=O)OCc1ccccc1

Result ::
[3.67, 0.224]

* * *

Molecular target: Ubiquitin carboxyl-terminal hydrolase isozyme L5 (Homo sapiens) (UniProt Q9Y5K5)
Sequence (Q9Y5K5 whole entry, looked up): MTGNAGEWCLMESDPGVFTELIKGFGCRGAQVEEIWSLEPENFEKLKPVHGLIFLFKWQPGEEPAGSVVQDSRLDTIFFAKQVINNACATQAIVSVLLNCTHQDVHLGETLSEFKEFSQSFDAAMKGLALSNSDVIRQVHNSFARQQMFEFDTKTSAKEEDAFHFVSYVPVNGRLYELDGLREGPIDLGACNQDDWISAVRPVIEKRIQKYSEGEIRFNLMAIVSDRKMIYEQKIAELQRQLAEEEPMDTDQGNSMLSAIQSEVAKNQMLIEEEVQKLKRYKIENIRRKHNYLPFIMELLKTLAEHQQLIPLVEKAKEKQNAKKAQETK
Assay: inhibitors of human UCH37 deubiquitinase, primary screen, biochemical, Ub-AMC cleavage, fluorescence (AID 588478);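 further: 0% = compound-free wells with enzyme and 100% = wells lacking proteasome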
Conditions: purified proteasome/UCH37, Ub-AMC cleavage fluorescence; concentration not given here
Hit rate of the full screen: of about 330,000 compounds, about 1,100 (0.33%) were called active.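 The calls were made as follows: active = mean inhibition over replicate wells above about 20% (limit read from the data); inactive = the rest.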 This is one part of a sample in which actives are shown more often than they occur.
Valid outcomes are listed here; reply with one: Yes for active, No for inactive

See these solved cases before continuing.
compound: O=C(NC1CCCC1)C(c1ccc(N2CCOCC2)cc1)N(C(=O)c1ccco1)c1ccccc1F (stereo not given)
target: Ubiquitin carboxyl-terminal hydrolase isozyme L5 (Homo sapiens) (UniProt Q9Y5K5)
label: Yes
--
compound: Cc1ccc(Nc2cc(C)nc3c(C)ccc([N+](=O)[O-])c23)cc1
target: Ubiquitin carboxyl-terminal hydrolase isozyme L5 (Homo sapiens) (UniProt Q9Y5K5)
label: Yes

Query :: What classification did COCCN1C=C2C(=O)C(C)(OC(=O)C3CCCC3)C(=O)C=C2C=C1c1ccsc1 (stereo not given) end up with in this test?
Result :: Yes

Query :: Next up: C=CCN1C=C2C(=O)C(C)(OC(=O)CCc3ccccc3)C(=O)C=C2C=C1c1ccc(C#N)cc1 (stereo not given)
Result :: No

Query :: Next up: COc1cc(C(C(=O)NC2CCCC2)N(C(=O)c2ccco2)c2ccccc2C(C)=O)cc(OC)c1OC (stereo not given)
Result :: No

* * *

Biological target: Ubiquitin carboxyl-terminal hydrolase isozyme L5 (Homo sapiens)
Assay: inhibitors of human UCH37 deubiquitinase, primary screen, biochemical, Ub-AMC cleavage, fluorescence (AID 588478);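 further: 0% = compound-free wells with enzyme and 100% = wells lacking proteasome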
Conditions: purified proteasome/UCH37, Ub-AMC cleavage fluorescence; active compounds read high; concentration not given here
The whole screen tested about 330,000 compounds, of which about 1,100 (0.33%) were called active. The full list was thinned out, with actives kept by preference.
quantityMeasured: inhibition (%)
One number for each entry, in %.

Please review the entries below; each comes with its answer.
molecule: Cc1cc(C)nc(SCC(=O)N(C)C)n1
inhibition, %: 4.9
--
molecule: COc1ccc(/C(O)=C2/C(=O)C(=O)N(CCCN(C)C)C2c2ccccc2)cc1OC (configuration not stated)
inhibition, %: 8.49
--
molecule: Cc1ccc2nc(C(Cl)(Cl)Cl)nc(NN=Cc3ccc([N+](=O)[O-])cc3)c2c1
inhibition, %: -0.00251
--
molecule: Oc1ccc(C=NNC2=NCCCCC2)c(O)c1
inhibition, %: -24.8
--
molecule: COc1ccc(Cn2nnc3c(=O)[nH]c(C4CCN(C(=O)c5ccccc5Cl)CC4)nc32)cc1
inhibition, %: 35.6

For every item below, please supply its inhibition.
1. CCOC(=O)c1cc(C(C)=NOC(=O)c2ccc(C(C)(C)C)cc2)on1
2. COc1cccc(C2/C(=C(/O)c3ccc(F)cc3)C(=O)C(=O)N2CCN(C)C)c1 (configuration not stated)
3. COc1ccc(CCNC(=O)C2CCN(c3nn4c(=O)cc(C)nc4s3)CC2)cc1OC

Result ::
4.76
26.3
27.9

* * *

Please go through the items and note down their inhibition.
Target: Ubiquitin carboxyl-terminal hydrolase isozyme L5 (Homo sapiens)
Assay: inhibitors of human UCH37 deubiquitinase, primary screen, biochemical, Ub-AMC cleavage, fluorescence (AID 588478);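 further: 0% = compound-free wells with enzyme and 100% = wells lacking proteasome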
Conditions: purified proteasome/UCH37, Ub-AMC cleavage fluorescence; active compounds read high; concentration not given here
The campaign covered roughly 330,000 compounds. About 1,100 (0.33%) were called active. This excerpt belongs to a sample that is enriched for actives.

For every item below, please supply its inhibition.
1. Cc1cccc(C=NNC(=O)Cn2nccc2C)n1
2. Cc1cc([N+](=O)[O-])cc(C=Nn2c(C)nc3ccccc3c2=O)c1O
3. CC(C)NC(=O)/C(C#N)=C\c1ccc(N(C)C)c(Br)c1

Result ::
["-0.386% (inactive)", "12.9% (inactive)", "35.8% (active)"]

For every item below, please supply its inhibition.
1. CCN1/C(=C\c2ccc3ccccc3[n+]2CC)Sc2cc(C)ccc21
2. COc1cc(C=Nn2c(C)nc3ccccc3c2=O)ccc1O
3. COc1ccc(C=NNc2nncn2N)cc1Br
4. CCOC(=O)C1=C(C)N=c2sc(=Cc3ccncc3)c(=O)n2C1c1ccc2c(c1)OCO2 (stereo not given)
5. COCc1c(C)cc(C)c(C=NO)c1C

Result ::
1. 4.94% (inactive)
2. 12.2% (inactive)
3. 14.1% (inactive)
4. -0.871% (inactive)
5. 3.47% (inactive)

For every item below, please supply its inhibition.
1. CCS(=O)(=O)C1=NSC2=NC(=O)/C(=C\c3cc(C)n(-c4cccc(OC)c4)c3C)C(=N)N21
2. COc1cc(OC)cc(C(=O)NN=Cc2ccoc2)c1
3. COc1cc(C=NNS(=O)(=O)c2ccc(C)cc2)ccc1OCc1ccc(C(=O)O)cc1
4. C[n+]1cn(N=Cc2ccccc2)c2ccccc21
5. CCOC(=O)CNC(=O)N1c2ccccc2Sc2ccccc21
6. N#C/C(=C\c1ccc(O)c(O)c1)C(=O)NCc1ccccc1

Result ::
-8.8% (inactive)
1.2% (inactive)
3.97% (inactive)
0.369% (inactive)
5.96% (inactive)
4.82% (inactive)

For every item below, please supply its inhibition.
1. CCOC(=O)c1cccc(NC(=O)CCOc2ccccc2)c1
2. CC(Oc1ccc(Cl)cc1)C(=O)NN=Cc1ccsc1 (stereo not given)

Result ::
1: 0.512% (inactive); 2: 0.279% (inactive)

* * *

Please go through the items and note down their inhibition.
Molecular target: Ubiquitin carboxyl-terminal hydrolase isozyme L5 (Homo sapiens) (UniProt Q9Y5K5)
Experiment: inhibitors of human UCH37 deubiquitinase, primary screen, biochemical, Ub-AMC cleavage, fluorescence (AID 588478);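 further: 0% = compound-free wells with enzyme and 100% = wells lacking proteasome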
Settings: purified proteasome/UCH37, Ub-AMC cleavage fluorescence; active compounds read high; concentration not given here
The campaign covered roughly 330,000 compounds. About 1,100 (0.33%) were called active. Only a selection was taken, and actives are over-represented in it overall.
Give bare numbers, in %.

molecule: COc1ccccc1C=NNc1cc(C)nc2ccc(C)cc12
inhibition [%]: -45.9

molecule: O=C(OCC(=O)N1CCN(c2ccccc2)CC1)c1ccc([N+](=O)[O-])s1
inhibition [%]: 61.3

molecule: C#CCOCCOCCOCCNc1nc(N2CCN(C(=O)[C@H](C(C)C)n3cc(CCO)nn3)CC2)nc(N2CCN(C(=O)[C@H](C(C)C)n3cc(CCO)nn3)CC2)n1
inhibition [%]: 0.233

molecule: CCOc1ccc(C=NNC(=O)c2nnn(-c3nonc3N)c2COc2ccc(F)cc2)cc1
inhibition [%]: -139

molecule: O=C1C=C(NS(=O)(=O)c2ccccc2)C(=O)c2ccccc21
inhibition [%]: 16.2

For every item below, please supply its inhibition.
1. C#CCOCCOCCOCCNc1nc(N2CCN(C(=O)[C@H](CCCN=C(N)N)n3cc(C(N)[C@@H](C)CC)nn3)CC2)nc(N2CCN(C(=O)[C@H](CO)n3cc([C@@H](N)C(C)C)nn3)CC2)n1 (some centres undefined)
2. CCC(=NNC(=O)Cc1ccc(Br)cc1)c1cccs1
3. O=C(Cc1ccccc1)NNC(=O)C1CCN(c2ncccn2)CC1
4. COc1ccccc1Oc1ccc(N/C=C2/CCCC2=O)cc1

Result ::
[3.95, 0.706, -5.78, 3.61]

Value source: PubChem BioAssay AID588478
